system: Felis catus; experiment: Effective dose required to produce an increase in dP/dt50, blood pressure by 1500 mmHg/s was determined in cat by intravenous administration; assay type: functional
VALUE_TYPE: log10 ED1.5 (log10 of the value in mg/kg)
Quick note: numbers are log10 of ED1.5, with mg/kg as the unit.

Here are 8 compounds together with their reported answers.
COMPOUND	SYSTEM_UNDER_TEST	log10 ED1.5
CCC1C(=O)Nc2cc3[nH]c(-c4ccncc4)nc3cc21 (stereo unspecified)	Felis catus	-1.40
CC1(C)C(=O)Nc2cc3[nH]c(-c4ccncc4)nc3cc21 [ADIBENDAN]	Felis catus	-2.00
O=C1Nc2cc3[nH]c(-c4ccncc4)nc3cc2C12CCCC2	Felis catus	-1.10
CC1(C)C(=O)Nc2cc3[nH]c(-c4cccnc4)nc3cc21	Felis catus	-1.70
CC1C(=O)Nc2cc3[nH]c(-c4ccncc4)nc3cc21 (stereo unspecified)	Felis catus	-2.00
CC1(C)C(=O)Nc2cc3[nH]c(Cc4ccncc4)nc3cc21	Felis catus	-0.22
CCOC(=O)C1(C)C(=O)Nc2cc3[nH]c(-c4ccncc4)nc3cc21 (stereo unspecified)	Felis catus	-0.60
Cc1[nH]c(=O)c(C#N)cc1-c1ccncc1 [MILRINONE]	Felis catus	-0.89

Tell me reported log10 ED1.5 for CCC1C(=O)Nc2cc3[nH]c(-c4cccnc4)nc3cc21 (stereo unspecified) , tested with Felis catus.
-0.82

Note, next up: CC1C(=O)Nc2cc3[nH]c(-c4cccnc4)nc3cc21 (stereo unspecified)
-1.52

Note, next up: `Cc1cc(-c2nc3cc4c(cc3[nH]2)C(C)(C)C(=O)N4)ccn1`
-1.52

* * *

tested on: Rattus norvegicus; experiment: Maximum increase in dP/dt recorded in mmHg/s at the dose 1.0 mg/kg administered intravenously in rat.; assay type: functional; details: route intravenous
Reported values of Max for individual entries

Here are 3 molecules together with their reported answers.
MOLECULE	Max
Cc1cc(-c2nc3cc4c(cc3[nH]2)C(C)(C)C(=O)N4)ccn1	2500 mmHg/s
CC1C(=O)Nc2cc3[nH]c(-c4ccncc4)nc3cc21 (centres undefined)	4400 mmHg/s
CC1(C)C(=O)Nc2cc3[nH]c(-c4ccnc(Cl)c4)nc3cc21	3900 mmHg/s

Please examine the following record next.
# input molecule: `CC1(C)C(=O)Nc2cc3[nH]c(-c4cc[n+]([O-])cc4)nc3cc21` ; wanted: its Max
4900 mmHg/s

* * *

system: Rattus norvegicus; assay: Effective dose required to produce an increase in dP/dt50, blood pressure by 1500 mmHg/s was determined in rat by intravenous administration; type: functional
Reported values of ED1.5 for individual entries

COMPOUND	RESULT
CCC1(CC)C(=O)Nc2cc3[nH]c(-c4ccncc4)nc3cc21	>3 mg/kg

# input compound: `CC1(C)C(=O)Nc2cc3[nH]c(/C=C/c4cccnc4)nc3cc21` ; wanted: its ED1.5
1.21 mg/kg

Note, next up: `O=C1Nc2cc3[nH]c(-c4ccncc4)nc3cc2C12CCCC2`
0.2 mg/kg

Note, next up: CC1C(=O)Nc2cc3[nH]c(-c4cccnc4)nc3cc21 (stereo not given)
0.06 mg/kg

Note, next up: `CC1(C)C(=O)Nc2cc3[nH]c(-c4ccccn4)nc3cc21`
0.96 mg/kg

Note, next up: CCC1C(=O)Nc2cc3[nH]c(-c4ccncc4)nc3cc21 (stereo not given)
0.06 mg/kg

* * *

system: Rattus norvegicus; assay: Effective dose required to produce an increase in dP/dt50, blood pressure by 1500 mmHg/s was determined in rat by intravenous administration; format: functional
Reported values of ED1.5 for individual entries
Answer with a number only, understood to be in mg/kg.

Here are 10 molecules together with their reported answers.
MOLECULE	ED1.5 [mg/kg]
CC1(C)C(=O)Nc2cc3[nH]c(-c4cccnc4)nc3cc21	1
Cc1cc(-c2nc3cc4c(cc3[nH]2)C(C)(C)C(=O)N4)ccn1	0.29
Cc1[nH]c(=O)c(C#N)cc1-c1ccncc1 [MILRINONE]	0.14
CCOC(=O)C1(C)C(=O)Nc2cc3[nH]c(-c4ccncc4)nc3cc21 (centres undefined)	0.09
CC1(C)C(=O)Nc2cc3[nH]c(-c4ccnc(Cl)c4)nc3cc21	0.07
CC1(C)C(=O)Nc2cc3[nH]c(-c4ccncc4)nc3cc21 [ADIBENDAN]	0.01
CCC1C(=O)Nc2cc3[nH]c(-c4cccnc4)nc3cc21 (centres undefined)	0.39
CC1C(=O)Nc2cc3[nH]c(-c4ccncc4)nc3cc21 (centres undefined)	0.02
CC1(C)C(=O)Nc2cc3[nH]c(-c4cc[n+]([O-])cc4)nc3cc21	0.03
CC1(C)C(=O)Nc2cc3[nH]c(Cc4ccncc4)nc3cc21	1.14

Please examine the following record next.
Tell me reported ED1.5 for `CC1(C)C(=O)Nc2cc3[nH]c(-c4ccnc(O)c4)nc3cc21` , tested with Rattus norvegicus.
0.87

* * *

Reported values of ED1.5 for individual entries
tested on: Rattus norvegicus; experiment: Effective dose required to produce an increase in dP/dt50, blood pressure by 1500 mmHg/s was determined in rat by intravenous administration; type: functional

Here are 5 molecules together with their reported answers.
MOLECULE	SYSTEM_UNDER_TEST	ED1.5
Cc1ccc(-c2nc3cc4c(cc3[nH]2)C(C)(C)C(=O)N4)cn1	Rattus norvegicus	>3 mg/kg
COc1nc(C)ccc1-c1nc2cc3c(cc2[nH]1)C(C)(C)C(=O)N3	Rattus norvegicus	>10 mg/kg
CC(C)C1C(=O)Nc2cc3[nH]c(-c4ccncc4)nc3cc21 (stereo not drawn)	Rattus norvegicus	>3 mg/kg
CCCCc1ccc(-c2nc3cc4c(cc3[nH]2)C(C)(C)C(=O)N4)nc1	Rattus norvegicus	>3 mg/kg
CC1(C(=O)NN)C(=O)Nc2cc3[nH]c(-c4ccncc4)nc3cc21 (stereo not drawn)	Rattus norvegicus	>10 mg/kg

# input molecule: O=C1Nc2cc3[nH]c(-c4ccncc4)nc3cc2C1C1CCCC1 (stereo not drawn) ; wanted: its ED1.5
>10 mg/kg

Note, next up: `CC1(C)C(=O)Nc2cc3[nH]c(CCc4ccncc4)nc3cc21`
>10 mg/kg

Note, next up: CC(C)CC1C(=O)Nc2cc3[nH]c(-c4ccncc4)nc3cc21 (stereo not drawn)
>3 mg/kg
